System: TO-3-N3 (biotin conjugate)
EXPERIMENT: pull-down binding Z-score (relative to library population); higher = stronger binding
RUN CONDITIONS: RNA library: Library-2
METRIC NAME: pull-down binding Z-score
The answer should be a number; do not append a unit.

Data request: Given the entry GCCAUGGAAAGUAAUGGC [hsa-mir-548ax] , report its measured pull-down binding Z-score.
Data returned: -0.0453

Data request: Given the entry CGUUUAGUAGAUGAUUGUGCAUUGUUUCAAAAUG [hsa-mir-224] , report its measured pull-down binding Z-score.
Data returned: -0.714

Data request: Given the entry GUUGCUGUACCUACAGGUUAUGUUGAUACACCUAAUAAUACAGAUUUUUCCAGAGUUAGUGCUAAACCACCGCCUGGAGAUCAAU [SHAPE_invitro_SARS-CoV-2_Multi_51_ComplexLevel_1] , report its measured pull-down binding Z-score.
Data returned: 0.475

Data request: Given the entry CUUCGGUAUUCAUCAAAAAUACCAAAG [hsa-mir-4735] , report its measured pull-down binding Z-score.
Data returned: -0.683
